tested on: C33A; assay: Primary qHTS to identify gynecologic anti-cancer compounds using libraries of approved drugs and bioactive compounds (AID 1345084); conditions: Gynecologic cancer cell panel viability, ATPlite luminescence, 48 h; series mostly up to 57.5 µM; also: % is scaled to controls: 0 for no effect and ±100 for the full control effect; nearly all actives have a fitted effect of over 55% in size
Inconclusive results are not listed. Active and inactive are the calls of the source. Calls follow the shape of the dose curve; as a rule, active = well fitted cell-killing curve with a large enough effect; inconclusive = small, poorly fitted or top-dose-only effect, or effect the other way; inactive = flat fitted curve, though single readings scatter.
MEASUREMENT TYPE: activity change, negative = cytotoxicity

{"COMPOUND": "C=C/C=C/[C@@H]1OC[C@H](/C=C/C=C/C)[C@H]1O", "activity change, negative = cytotoxicity": "inactive"}
{"COMPOUND": "C=CC(C)(O)CC/C=C(/C)C(=O)OC1C(OC2OCC(OC3OC(CO)C(O)C(O)C3O)C(OC3OCC(O)C(OC4OC(C)C(O)C(O)C4O)C3O)C2O)COC(OC(=O)C23CCC(C)(C)CC2C2=CCC4C5(C)CCC(OC6OC(CO)C(OC7OC(CO)C(O)C(OC8OCC(O)C(O)C8O)C7O)C(O)C6O)C(C)(C)C5CCC4(C)C2(C)CC3O)C1O (stereo not drawn)", "activity change, negative = cytotoxicity": "1.13% [at 6.55 µM] (inactive)"}
{"COMPOUND": "C/C=C(\\C)C(=O)O[C@@H](C)[C@H]1CC[C@]2(O)C3CCC4C[C@@H](OC5CC(OC)C(OC6CC(OC)C(OC7CC(OC)C(OC8OC(C)C(OC9OC(CO)C(O)C(O)C9O)C(OC)C8O)C(C)O7)C(C)O6)C(C)O5)CC[C@]4(C)C3[C@H](O)[C@@H](O)[C@]12C (stereo partly drawn)", "activity change, negative = cytotoxicity": "19.4% [at 6.55 µM] (inactive)"}
{"COMPOUND": "C=C(C(=O)OC)C1CCC2(C)C(O[C@@H]3O[C@H](CO)[C@@H](O)[C@H](O)[C@H]3O)CC(=O)C(C)C2C1O (stereo partly drawn)", "activity change, negative = cytotoxicity": "inactive"}
{"COMPOUND": "CC1NC(=O)C(Cc2c[nH]c3ccccc23)NC1=O (stereo not drawn)", "activity change, negative = cytotoxicity": "inactive"}
{"COMPOUND": "Nc1ccn([C@@H]2C(F)=C(CO)[C@@H](O)[C@H]2O)c(=O)n1", "activity change, negative = cytotoxicity": "inactive"}

Please fill in: activity change, negative = cytotoxicity reported for CC1OC(OC2C(C)OC(OC3C(OC(=O)/C=C/c4ccc(O)cc4)C(CO)OC(OC4(COC(=O)/C=C/c5ccc(O)cc5)OC(CO)C(O)C4O)C3OC3OCC(O)(CO)C3O)C(O)C2O)C(O)C(O)C1O (stereo not drawn) = 4.08% [at 11.6 µM] (inactive)

Please fill in: activity change, negative = cytotoxicity reported for CC(C(=O)O)C1CCC2(C)C3C(=O)C=C4C(CCC(=O)C4(C)C)C3(C)CCC12C (stereo not drawn) = inactive

----------
test system: Dd2; assay: qHTS profiling for inhibitors of Plasmodium falciparum proliferation (AID 504749);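 also: 0% = DMSO vehicle and full inhibition = artemisinin control; nearly all actives have a fitted effect of over 60% in size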; conditions: P. falciparum in erythrocytes, SYBR Green DNA, 72 h; series mostly up to 28.7 µM
Results filed as inconclusive are left out. Calls of active or inactive are those of the source. The call rests on the fitted dose curve; in most records, active means well fitted inhibition curve with a large enough effect; inconclusive means small, poorly fitted or top-dose-only effect; inactive means flat fitted curve, though single readings scatter.
MEASUREMENT TYPE: outcome

Consider the following illustrative entries.
{"COMPOUND": "O=S(=O)(O)c1ccc2c(N=Nc3ccc(S(=O)(=O)O)c4ccccc34)c(O)c(S(=O)(=O)O)cc2c1", "outcome": "inactive"}
{"COMPOUND": "CCOC(C)=O", "outcome": "inactive"}
{"COMPOUND": "CC1=CCC(C(C)(C)O)CC1 (configuration not stated)", "outcome": "inactive"}
{"COMPOUND": "CCC(=O)NCCC1CCc2ccc3c(c21)CCO3 (configuration not stated)", "outcome": "inactive"}
{"COMPOUND": "O=CCCCC=O", "outcome": "inactive"}
{"COMPOUND": "CCCCCCCCCCCCCCCC(=O)OCC(COC(=O)CCCCCCCCCCCCCCC)OC(=O)CCCCCCCCCCCCCCC", "outcome": "inactive"}

# ---- query compound ----
Please fill in: outcome reported for CC1=C(/C=C/C(C)=C/C=C/C(C)=C/C=C/C=C(C)/C=C/C=C(C)/C=C/C2=C(C)CCCC2(C)C)C(C)(C)CCC1 = inactive
